- assay: Cytotoxicity against MDCK cells assessed as growth inhibition by CPE assay
- Format: cell-based, Canis lupus familiaris
- reported conditions: dog, read-out: TC50 (the source's name)
Consider the following compounds and their measured CC50 readings.
The answer is to be given in µM; state only the numeric part.

Q: Answer with the recorded CC50 for the compound listed here: "CCOC(=O)C1=C[C@@H](OC(CC)CC)[C@H](NC(C)=O)[C@@H](N)C1"
A: 3120

Q: Entry "CC1=C2C[C@H]3[C@@]4(CO4)[C@H](O)C=C[C@]3(C)C[C@@H]2OC1=O" needs its CC50 filled in; supply it.
A: 100

Q: Look up and report measured CC50 for this entry: "C=C1C(=O)O[C@@H]2C=C(CCC(C)=O)[C@@H](C)CC[C@@H]12"
A: 19.3

Q: Output measured CC50 for this item: CCOC(=O)/C=C/c1ccc(O)c(O)c1 [ETHYL CAFFEATE]
A: 19.3

Q: Specify reported CC50 for the compound shown: COc1cc(C(O)C(CO)Oc2ccc(C(=O)O)cc2OC)ccc1O (stereo unspecified)
A: 100

Q: Respond only with CC50 recorded for "C=C1C(=O)O[C@H]2C[C@H](C)C(C=O)=CC[C@H]12"
A: 48.1

Cited source: ChEMBL document CHEMBL3593156
